// provenance: patent US7759331B2

The compounds listed here are annotated with their Activity at Protein Kinase Assays (% of control), MST2(h).
target: MST2(h) (Homo sapiens); assay: Protein kinase selectivity panel; assay type: biochemical; settings: 1.0 μM compound, 10 μM ATP
Sequence (Q13188 whole entry): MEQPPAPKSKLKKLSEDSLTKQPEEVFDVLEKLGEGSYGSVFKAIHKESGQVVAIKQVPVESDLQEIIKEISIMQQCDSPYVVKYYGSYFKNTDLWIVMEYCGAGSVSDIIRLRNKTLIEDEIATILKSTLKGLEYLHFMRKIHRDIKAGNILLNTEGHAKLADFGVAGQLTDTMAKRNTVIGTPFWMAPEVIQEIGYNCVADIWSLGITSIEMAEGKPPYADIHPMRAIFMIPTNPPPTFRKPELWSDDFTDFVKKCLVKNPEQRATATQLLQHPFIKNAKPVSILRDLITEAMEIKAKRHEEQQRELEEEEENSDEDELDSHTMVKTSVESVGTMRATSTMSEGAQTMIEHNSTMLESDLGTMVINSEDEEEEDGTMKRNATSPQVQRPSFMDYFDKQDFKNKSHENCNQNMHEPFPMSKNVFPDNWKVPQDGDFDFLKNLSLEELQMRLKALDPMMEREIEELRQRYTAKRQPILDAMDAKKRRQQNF

> print(dat)
                                 mol.smiles  recorded.result
1  O=C1NC(=O)C2=C1c1cn(c3ccccc13)CCCc1ccc(c(N3CCCC3)n1)CCCn1cc2c2ccccc21  86 % of control

Hey, MST2(h) (Homo sapiens) data for O=C1NC(=O)C2=C1c1cn(c3ccccc13)CCCc1cc(nc(N3CCCC3)c1)CCCn1cc2c2ccccc21 : Activity at Protein Kinase Assays (% of control), MST2(h) came out at 100 % of control

Hey, MST2(h) (Homo sapiens) data for CN(C)c1cc2cc(n1)CCCn1cc(c3ccccc31)C1=C(C(=O)NC1=O)c1cn(c3ccccc13)CCC2 : Activity at Protein Kinase Assays (% of control), MST2(h) came out at 84 % of control

Hey, MST2(h) (Homo sapiens) data for CN(C)c1nc2ccc1CCCCn1cc(c3ccccc31)C1=C(C(=O)NC1=O)c1cn(c3ccccc13)CCC2 : Activity at Protein Kinase Assays (% of control), MST2(h) came out at 103 % of control

----------
The compounds listed here are annotated with their Activity at Protein Kinase Assays (% of control), c-RAF(h).
biological target: c-RAF(h) (Homo sapiens); assay: Protein kinase selectivity panel; assay type: biochemical; conditions: 1.0 μM compound, 10 μM ATP
Sequence (P04049 whole entry): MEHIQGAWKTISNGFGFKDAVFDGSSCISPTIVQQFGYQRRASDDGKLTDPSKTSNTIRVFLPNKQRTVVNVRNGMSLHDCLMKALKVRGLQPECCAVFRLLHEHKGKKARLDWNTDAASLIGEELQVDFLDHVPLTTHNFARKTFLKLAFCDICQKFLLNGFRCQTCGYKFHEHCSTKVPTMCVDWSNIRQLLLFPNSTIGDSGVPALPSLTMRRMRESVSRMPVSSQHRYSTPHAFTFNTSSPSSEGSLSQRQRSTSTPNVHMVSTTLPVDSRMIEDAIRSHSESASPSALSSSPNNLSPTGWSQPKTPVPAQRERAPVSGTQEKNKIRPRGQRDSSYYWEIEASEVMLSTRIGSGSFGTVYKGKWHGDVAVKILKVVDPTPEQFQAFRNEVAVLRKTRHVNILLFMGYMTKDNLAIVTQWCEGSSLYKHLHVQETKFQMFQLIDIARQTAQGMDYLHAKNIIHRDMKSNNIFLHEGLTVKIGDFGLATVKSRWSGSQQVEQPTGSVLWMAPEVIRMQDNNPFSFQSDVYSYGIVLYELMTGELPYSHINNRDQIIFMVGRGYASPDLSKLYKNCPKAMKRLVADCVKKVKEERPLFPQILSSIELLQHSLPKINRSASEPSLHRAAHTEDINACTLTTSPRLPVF

Consider the following illustrative entries.
> print(dat)
                                 mol.smiles         target.or.system  recorded.result
1  CN(C)c1cc2cc(n1)CCCn1cc(c3ccccc31)C1=C(C(=O)NC1=O)c1cn(c3ccccc13)CCC2  c-RAF(h) (Homo sapiens)  87 % of control
2  O=C1NC(=O)C2=C1c1cn(c3ccccc13)CCCc1cc(nc(N3CCCC3)c1)CCCn1cc2c2ccccc21  c-RAF(h) (Homo sapiens)  92 % of control
3  O=C1NC(=O)C2=C1c1cn(c3ccccc13)CCCc1ccc(c(N3CCCC3)n1)CCCn1cc2c2ccccc21  c-RAF(h) (Homo sapiens)  85 % of control

Consider now this further compound.
Activity at Protein Kinase Assays (% of control), c-RAF(h) reported for this compound CN(C)c1nc2ccc1CCCCn1cc(c3ccccc31)C1=C(C(=O)NC1=O)c1cn(c3ccccc13)CCC2 : 103 % of control

----------
Target: PRAK(h) (Homo sapiens)
Sequence (Q8IW41 1-473): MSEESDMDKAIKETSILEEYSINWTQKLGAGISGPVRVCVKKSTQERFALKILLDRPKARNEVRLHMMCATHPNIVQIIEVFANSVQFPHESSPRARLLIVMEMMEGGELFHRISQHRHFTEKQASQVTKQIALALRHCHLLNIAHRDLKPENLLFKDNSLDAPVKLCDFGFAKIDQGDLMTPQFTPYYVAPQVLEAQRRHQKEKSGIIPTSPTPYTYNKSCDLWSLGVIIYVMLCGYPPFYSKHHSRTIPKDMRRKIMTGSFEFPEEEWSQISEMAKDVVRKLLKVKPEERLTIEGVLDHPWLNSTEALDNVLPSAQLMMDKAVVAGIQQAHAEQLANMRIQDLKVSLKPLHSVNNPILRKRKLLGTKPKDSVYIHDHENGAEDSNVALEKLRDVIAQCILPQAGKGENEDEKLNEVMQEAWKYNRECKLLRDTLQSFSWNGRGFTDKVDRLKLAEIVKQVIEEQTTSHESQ
Assay: Protein kinase selectivity panel
Assay type: biochemical
Details: 1.0 μM compound, 10 μM ATP
The compounds listed here are annotated with their Activity at Protein Kinase Assays (% of control), PRAK(h).

Consider the following illustrative entries.
> print(dat)
                                 mol.smiles   recorded.result
1  CN(C)c1cc2cc(n1)CCCn1cc(c3ccccc31)C1=C(C(=O)NC1=O)c1cn(c3ccccc13)CCC2   96 % of control
2  O=C1NC(=O)C2=C1c1cn(c3ccccc13)CCCc1ccc(c(N3CCCC3)n1)CCCn1cc2c2ccccc21  102 % of control

Activity at Protein Kinase Assays (% of control), PRAK(h) reported for this compound O=C1NC(=O)C2=C1c1cn(c3ccccc13)CCCc1cc(nc(N3CCCC3)c1)CCCn1cc2c2ccccc21 : 101 % of control

Activity at Protein Kinase Assays (% of control), PRAK(h) reported for this compound CN(C)c1nc2ccc1CCCCn1cc(c3ccccc31)C1=C(C(=O)NC1=O)c1cn(c3ccccc13)CCC2 : 88 % of control

----------
System: CaMKII(r)
Assay: Protein kinase selectivity panel
Type: biochemical, rat
Conditions: 1.0 μM compound, 10 μM ATP
Protocol: Protein kinase selectivity assays were performed as described in the scientific literature (Davies, S. P., et al., Biochem. J. 2000, 351, 95-105). Briefly, protein kinases were assayed for their ability to phosphorylate the appropriate peptide/protein substrates in the presence of 1.0 μM compound. Assays were done using 10 μM ATP and were linear with respect to time. […]
Metric: Activity at Protein Kinase Assays (% of control), CaMKII(r)

Consider the following illustrative entries.
> print(dat)
                                 mol.smiles   recorded.result
1  CN(C)c1nc2ccc1CCCCn1cc(c3ccccc31)C1=C(C(=O)NC1=O)c1cn(c3ccccc13)CCC2   92 % of control
2  O=C1NC(=O)C2=C1c1cn(c3ccccc13)CCCc1ccc(c(N3CCCC3)n1)CCCn1cc2c2ccccc21   98 % of control
3  O=C1NC(=O)C2=C1c1cn(c3ccccc13)CCCc1cc(nc(N3CCCC3)c1)CCCn1cc2c2ccccc21  109 % of control

Consider now this further compound.
Hey, CaMKII(r) data for CN(C)c1cc2cc(n1)CCCn1cc(c3ccccc31)C1=C(C(=O)NC1=O)c1cn(c3ccccc13)CCC2 : Activity at Protein Kinase Assays (% of control), CaMKII(r) came out at 107 % of control

----------
biological target: Fes(h) (Homo sapiens); assay: Protein kinase selectivity panel; format: biochemical; settings: 1.0 μM compound, 10 μM ATP
Sequence (P07332 whole entry): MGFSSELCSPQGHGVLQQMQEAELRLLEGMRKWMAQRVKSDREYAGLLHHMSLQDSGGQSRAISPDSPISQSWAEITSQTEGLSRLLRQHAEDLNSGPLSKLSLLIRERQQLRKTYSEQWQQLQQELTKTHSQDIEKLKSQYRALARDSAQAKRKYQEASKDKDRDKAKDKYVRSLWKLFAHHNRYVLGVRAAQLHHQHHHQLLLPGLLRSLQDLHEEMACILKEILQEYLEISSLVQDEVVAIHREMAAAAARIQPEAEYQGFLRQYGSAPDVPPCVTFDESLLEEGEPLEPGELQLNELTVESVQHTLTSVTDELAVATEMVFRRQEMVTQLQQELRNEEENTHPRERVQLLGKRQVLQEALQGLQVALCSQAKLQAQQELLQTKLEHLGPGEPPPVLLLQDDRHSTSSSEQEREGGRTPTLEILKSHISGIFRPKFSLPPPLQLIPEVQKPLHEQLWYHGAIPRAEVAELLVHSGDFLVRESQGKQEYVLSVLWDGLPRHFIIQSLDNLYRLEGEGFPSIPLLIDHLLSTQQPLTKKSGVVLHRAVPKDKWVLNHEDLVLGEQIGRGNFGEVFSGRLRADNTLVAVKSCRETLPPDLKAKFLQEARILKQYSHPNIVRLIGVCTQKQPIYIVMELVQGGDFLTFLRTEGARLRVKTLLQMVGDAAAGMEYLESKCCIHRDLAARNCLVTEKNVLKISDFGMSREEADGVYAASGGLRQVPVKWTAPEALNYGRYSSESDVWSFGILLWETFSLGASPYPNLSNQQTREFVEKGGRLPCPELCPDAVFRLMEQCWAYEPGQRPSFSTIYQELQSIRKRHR
The compounds listed here are annotated with their Activity at Protein Kinase Assays (% of control), Fes(h).

Consider the following illustrative entries.
> print(dat)
                                   compound       target.or.system   recorded.result
1  CN(C)c1cc2cc(n1)CCCn1cc(c3ccccc31)C1=C(C(=O)NC1=O)c1cn(c3ccccc13)CCC2 [Cpd 2]  Fes(h) (Homo sapiens)  133 % of control
2  CN(C)c1nc2ccc1CCCCn1cc(c3ccccc31)C1=C(C(=O)NC1=O)c1cn(c3ccccc13)CCC2 [Cpd 1]  Fes(h) (Homo sapiens)  107 % of control
3  O=C1NC(=O)C2=C1c1cn(c3ccccc13)CCCc1ccc(c(N3CCCC3)n1)CCCn1cc2c2ccccc21 [Cpd 7]  Fes(h) (Homo sapiens)  130 % of control

Activity at Protein Kinase Assays (% of control), Fes(h) reported for this compound O=C1NC(=O)C2=C1c1cn(c3ccccc13)CCCc1cc(nc(N3CCCC3)c1)CCCn1cc2c2ccccc21 [Cpd 6] : 139 % of control

----------
Molecular target: FGFR3(h) (Homo sapiens, UniProt P22607)
Sequence (P22607 23-806): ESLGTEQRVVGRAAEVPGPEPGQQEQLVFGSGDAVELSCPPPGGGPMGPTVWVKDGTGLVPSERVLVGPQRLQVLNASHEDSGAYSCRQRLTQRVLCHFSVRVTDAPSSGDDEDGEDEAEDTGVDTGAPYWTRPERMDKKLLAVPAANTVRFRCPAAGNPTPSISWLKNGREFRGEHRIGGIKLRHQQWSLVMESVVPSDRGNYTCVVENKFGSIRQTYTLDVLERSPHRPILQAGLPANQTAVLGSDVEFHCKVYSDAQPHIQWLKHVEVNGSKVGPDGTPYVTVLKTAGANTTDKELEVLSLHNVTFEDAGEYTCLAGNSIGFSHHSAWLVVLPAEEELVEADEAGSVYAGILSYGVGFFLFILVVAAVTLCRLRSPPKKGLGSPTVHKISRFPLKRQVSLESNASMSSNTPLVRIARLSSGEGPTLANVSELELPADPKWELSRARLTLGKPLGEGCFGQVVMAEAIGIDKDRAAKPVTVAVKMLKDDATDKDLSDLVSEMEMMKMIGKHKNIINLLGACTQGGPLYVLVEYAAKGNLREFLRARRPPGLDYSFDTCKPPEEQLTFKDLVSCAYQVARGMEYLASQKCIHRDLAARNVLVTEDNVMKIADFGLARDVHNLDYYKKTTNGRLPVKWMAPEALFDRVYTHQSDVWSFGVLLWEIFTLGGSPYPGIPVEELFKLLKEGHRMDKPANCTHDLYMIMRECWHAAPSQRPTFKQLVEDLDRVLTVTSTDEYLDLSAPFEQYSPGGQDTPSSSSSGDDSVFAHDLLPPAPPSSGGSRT
Assay: Protein kinase selectivity panel
Type: biochemical
Details: 1.0 μM compound, 10 μM ATP
Experimental: Protein kinase selectivity assays were performed as described in the scientific literature (Davies, S. P., et al., Biochem. J. 2000, 351, 95-105). Briefly, protein kinases were assayed for their ability to phosphorylate the appropriate peptide/protein substrates in the presence of 1.0 μM compound. Assays were done using 10 μM ATP and were linear with respect to time. […]
The compounds listed here are annotated with their Activity at Protein Kinase Assays (% of control), FGFR3(h).

> print(dat)
                                   compound   recorded.result
1  O=C1NC(=O)C2=C1c1cn(c3ccccc13)CCCc1ccc(c(N3CCCC3)n1)CCCn1cc2c2ccccc21 [Cpd 7]  117 % of control
2  CN(C)c1cc2cc(n1)CCCn1cc(c3ccccc31)C1=C(C(=O)NC1=O)c1cn(c3ccccc13)CCC2 [Cpd 2]   84 % of control
3  CN(C)c1nc2ccc1CCCCn1cc(c3ccccc31)C1=C(C(=O)NC1=O)c1cn(c3ccccc13)CCC2 [Cpd 1]   75 % of control

Activity at Protein Kinase Assays (% of control), FGFR3(h) reported for this compound O=C1NC(=O)C2=C1c1cn(c3ccccc13)CCCc1cc(nc(N3CCCC3)c1)CCCn1cc2c2ccccc21 [Cpd 6] : 114 % of control

----------
target: PKBγ(h) (Homo sapiens, UniProt Q9Y243); assay: Protein kinase selectivity panel; type: biochemical; details: 1.0 μM compound, 10 μM ATP
Sequence (Q9Y243 whole entry): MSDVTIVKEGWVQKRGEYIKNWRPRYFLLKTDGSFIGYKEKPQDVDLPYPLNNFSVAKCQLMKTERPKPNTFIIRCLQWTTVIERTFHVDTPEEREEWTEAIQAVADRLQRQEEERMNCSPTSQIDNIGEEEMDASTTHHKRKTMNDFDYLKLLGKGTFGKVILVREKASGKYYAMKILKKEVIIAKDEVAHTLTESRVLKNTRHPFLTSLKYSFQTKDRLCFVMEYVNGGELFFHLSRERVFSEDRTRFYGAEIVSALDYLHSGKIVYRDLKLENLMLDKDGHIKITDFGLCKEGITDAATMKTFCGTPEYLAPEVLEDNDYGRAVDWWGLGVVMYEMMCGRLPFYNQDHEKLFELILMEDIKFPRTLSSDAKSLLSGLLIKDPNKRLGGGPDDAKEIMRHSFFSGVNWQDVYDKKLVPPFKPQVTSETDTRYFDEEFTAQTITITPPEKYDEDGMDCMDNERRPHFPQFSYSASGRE
Metric: Activity at Protein Kinase Assays (% of control), PKBγ(h)

Consider the following illustrative entries.
> print(dat)
                                   compound                        target.or.system   recorded.result
1  O=C1NC(=O)C2=C1c1cn(c3ccccc13)CCCc1ccc(c(N3CCCC3)n1)CCCn1cc2c2ccccc21 [Cpd 7]  PKBγ(h) (Homo sapiens, UniProt Q9Y243)  105 % of control
2  O=C1NC(=O)C2=C1c1cn(c3ccccc13)CCCc1cc(nc(N3CCCC3)c1)CCCn1cc2c2ccccc21 [Cpd 6]  PKBγ(h) (Homo sapiens, UniProt Q9Y243)  103 % of control
3  CN(C)c1nc2ccc1CCCCn1cc(c3ccccc31)C1=C(C(=O)NC1=O)c1cn(c3ccccc13)CCC2 [Cpd 1]  PKBγ(h) (Homo sapiens, UniProt Q9Y243)   93 % of control

Consider now this further compound.
Activity at Protein Kinase Assays (% of control), PKBγ(h) reported for this compound CN(C)c1cc2cc(n1)CCCn1cc(c3ccccc31)C1=C(C(=O)NC1=O)c1cn(c3ccccc13)CCC2 [Cpd 2] : 106 % of control
